Reported pIC50 by item:
- target_or_system: Stromelysin (Homo sapiens)
- procedure_text: biochemical
pIC50: −log10 of the molar value.

compound	pIC50
CCCCCCCC(CC(=O)NO)C(=O)N[C@@H](CC(C)C)C(=O)N[C@@H](CC(C)C)C(=O)NCC (single isomer, unassigned) [Compound A]	7.90
CCCCCCC[C@@H](C(=O)N[C@@H](CC(C)C)C(=O)N[C@@H](CC(C)C)C(=O)NCC)C(CN1C(=O)c2ccccc2C1=O)C(=O)NO (single isomer, unassigned) [Compound D]	9.23
CCCCCCC[C@@H](C(=O)N[C@@H](CC(C)C)C(=O)N[C@@H](CC(C)C)C(=O)NCC)C(CCCc1ccccc1)C(=O)NO (single isomer, unassigned) [Compound H]	9.18

###

- target_or_system: gelatinase B (Homo sapiens, UniProt P14780)
- Sequence (P14780 94-707): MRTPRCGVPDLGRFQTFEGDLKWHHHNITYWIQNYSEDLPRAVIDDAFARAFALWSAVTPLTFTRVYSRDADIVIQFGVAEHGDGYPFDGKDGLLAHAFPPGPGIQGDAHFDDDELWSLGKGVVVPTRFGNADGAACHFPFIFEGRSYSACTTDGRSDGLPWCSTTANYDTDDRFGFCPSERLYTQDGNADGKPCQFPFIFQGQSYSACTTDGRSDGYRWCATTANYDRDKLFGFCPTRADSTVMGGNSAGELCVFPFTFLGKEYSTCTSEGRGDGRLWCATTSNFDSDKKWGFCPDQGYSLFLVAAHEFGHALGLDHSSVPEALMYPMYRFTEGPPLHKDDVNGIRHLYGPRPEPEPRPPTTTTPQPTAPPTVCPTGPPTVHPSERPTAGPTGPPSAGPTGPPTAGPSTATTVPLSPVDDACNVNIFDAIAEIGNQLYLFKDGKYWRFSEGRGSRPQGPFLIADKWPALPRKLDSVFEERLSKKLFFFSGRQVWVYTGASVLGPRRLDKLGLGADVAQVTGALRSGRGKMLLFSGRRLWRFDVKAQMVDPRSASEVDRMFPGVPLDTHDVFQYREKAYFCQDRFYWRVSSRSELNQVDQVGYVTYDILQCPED
- procedure_text: biochemical
- measurement_context: gelatinase B from human neutrophils, 0.25 mM substrate, pH 7.5, 37°C, 16 hours; * = IC50 limited by mutual depletion of the enzyme; read-out: Test C IC50 (mol)
pIC50: −log10 of the molar value.
reported_property: pIC50

compound	reported_property	measured_result
CCCCCCC[C@@H](C(=O)N[C@H](C(=O)NC)C(C)(C)C)C(CN1C(=O)c2ccccc2C1=O)C(=O)NO (single isomer, unassigned)	pIC50	9.05
CCCCCCCC(CC(=O)NO)C(=O)N[C@@H](Cc1ccccc1)C(=O)NC (some centres unmarked)	pIC50	8.49

###

- target_or_system: Stromelysin (Homo sapiens, UniProt P08254)
- Sequence (P08254 100-477): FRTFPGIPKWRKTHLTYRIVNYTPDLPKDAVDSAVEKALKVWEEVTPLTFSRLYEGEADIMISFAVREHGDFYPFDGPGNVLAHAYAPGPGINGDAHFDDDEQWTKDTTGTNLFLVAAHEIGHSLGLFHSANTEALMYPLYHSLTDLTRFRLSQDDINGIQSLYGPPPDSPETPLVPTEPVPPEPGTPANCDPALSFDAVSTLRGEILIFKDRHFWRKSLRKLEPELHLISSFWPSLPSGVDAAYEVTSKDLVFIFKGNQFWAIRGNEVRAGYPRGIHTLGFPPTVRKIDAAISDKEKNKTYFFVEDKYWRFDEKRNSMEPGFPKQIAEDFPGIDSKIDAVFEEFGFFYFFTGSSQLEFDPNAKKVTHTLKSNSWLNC
- procedure_text: biochemical

molecule	target_or_system	unit_spec	IC50
CCCCCCCCCC(CC(=O)NO)C(=O)N[C@@H](CC(C)C)C(=O)N[C@@H](CC(C)C)C(=O)NCC (single isomer, unassigned)	Stromelysin (Homo sapiens, UniProt P08254)	nM	9.3
CCCCCCCC(C(=O)N[C@@H](CC(C)C)C(=O)N[C@@H](CC(C)C)C(=O)NCC)[C@H](C)C(=O)NO (single isomer, unassigned)	Stromelysin (Homo sapiens, UniProt P08254)	nM	2.3
CCCCCCCC(CC(=O)NO)C(=O)N[C@@H](Cc1ccccc1)C(=O)NC (stereo partly drawn)	Stromelysin (Homo sapiens, UniProt P08254)	nM	22

###

- target_or_system: Stromelysin (Homo sapiens)
- procedure_text: biochemical
- measurement_context: stromelysin 35 ng/ml, fluorescent peptide substrate, pH 7.5, 37°C, 16 hours; * = IC50 limited by mutual depletion of the enzyme; read-out: Test B IC50 (mol)
reported_property: IC50 (nM)

compound	measured_result
CCCCCCC[C@@H](C(=O)N[C@H](C(=O)NC)C(C)(C)C)C(CN1C(=O)c2ccccc2C1=O)C(=O)NO (single isomer, unassigned) [Compound G]	1.2

###

- target_or_system: Stromelysin (Homo sapiens, UniProt P08254)
- procedure_text: Stromelysin (Test A), 14C-acetylated b-casein substrate digestion
- Type: biochemical
- measurement_context: read-out: Test A IC50 (mol)
pIC50: −log10 of the molar value.

molecule	pIC50
CCCCCCC[C@@H](C(=O)N[C@@H](CC(C)C)C(=O)N[C@@H](CC(C)C)C(=O)NCC)C(CN1C(=O)c2ccccc2C1=O)C(=O)NO (single isomer, unassigned)	8.00
CCCCCCCCCC(CC(=O)NO)C(=O)N[C@@H](CC(C)C)C(=O)N[C@@H](CC(C)C)C(=O)NCC (single isomer, unassigned)	7.59
CCCCCCCC(CC(=O)NO)C(=O)N[C@@H](CC(C)C)C(=O)N[C@@H](CC(C)C)C(=O)NCC (single isomer, unassigned)	7.48
CCCCCCCC(C(=O)N[C@@H](CC(C)C)C(=O)N[C@@H](CC(C)C)C(=O)NCC)[C@H](C)C(=O)NO (single isomer, unassigned)	7.96

###

- target_or_system: gelatinase B (Homo sapiens)
- procedure_text: biochemical

compound	target_or_system	IC50 [nM]
CCCCCCCCCC(CC(=O)NO)C(=O)N[C@@H](CC(C)C)C(=O)N[C@@H](CC(C)C)C(=O)NCC (single isomer, unassigned)	gelatinase B (Homo sapiens)	50
CCCCCCCC(CC(=O)NO)C(=O)N[C@@H](CC(C)C)C(=O)N[C@@H](CC(C)C)C(=O)NCC (single isomer, unassigned)	gelatinase B (Homo sapiens)	320
